# Activity per record follows
Test system: Mus musculus
protocol text: Sedative activity in Mus musculus Swiss albino (mouse) at 10 mg/kg, ip after 1 hr relative to control
Format: organism-based
Parameters: dose 10 mg/kg, route intraperitoneal
condition label: in vivo

Example results:
INSERT INTO results (compound, property_label, meas_value) VALUES
  ('CN(C)CCNc1nc2sc3ccccc3n2c(=O)c1C(N)=O', 'Activity', '36.25%'),
  ('NC(=O)c1c(N2CCCC2)nc2sc3ccccc3n2c1=O', 'Activity', '33.33%'),
  ('NC(=O)c1c(N2CCCC2)nc2sc3cc(Cl)ccc3n2c1=O', 'Activity', '38.27%'),
  ('NC(=O)c1c(N2CCOCC2)nc2sc3ccccc3n2c1=O', 'Activity', '24.32%');

# input compound: `CN1CCN(c2nc3sc4cc(Cl)ccc4n3c(=O)c2C(N)=O)CC1` ; wanted: its Activity
32.92%

`NC(=O)c1c(N2CCCCC2)nc2sc3cc(Cl)ccc3n2c1=O` ?
20.51%

Next compound: `CCN1CCN(c2nc3sc4ccccc4n3c(=O)c2C(N)=O)CC1`
26.43%

Repeat for the following compound: `CN(C)CCNc1nc2sc3cc(Cl)ccc3n2c(=O)c1C(N)=O`
25.97%
